- assay_target: HCV polymerase 1B (Δ21 NS5B, BK) (Hepatitis C virus genotype 1b)
- Construct: 20 to 50 nM Δ21 NS5B
- Sequence (P26663 2420-2989, stated change not applied): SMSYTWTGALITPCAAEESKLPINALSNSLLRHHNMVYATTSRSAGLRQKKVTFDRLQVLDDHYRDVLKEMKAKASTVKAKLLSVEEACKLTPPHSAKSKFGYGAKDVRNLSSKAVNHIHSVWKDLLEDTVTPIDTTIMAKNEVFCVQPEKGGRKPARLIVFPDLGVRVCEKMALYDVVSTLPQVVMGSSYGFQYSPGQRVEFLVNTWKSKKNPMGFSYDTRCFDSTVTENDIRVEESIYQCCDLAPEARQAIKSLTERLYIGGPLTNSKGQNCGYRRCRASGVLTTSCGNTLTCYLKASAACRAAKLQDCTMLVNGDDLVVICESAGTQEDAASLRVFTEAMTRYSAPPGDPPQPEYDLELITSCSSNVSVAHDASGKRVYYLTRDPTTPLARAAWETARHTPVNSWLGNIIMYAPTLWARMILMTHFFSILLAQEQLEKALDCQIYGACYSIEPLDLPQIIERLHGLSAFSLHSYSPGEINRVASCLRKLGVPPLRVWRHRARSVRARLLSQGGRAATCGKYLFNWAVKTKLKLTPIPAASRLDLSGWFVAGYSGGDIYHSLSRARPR
- measurement_notes: biochemical
- Description: HCV Polymerase Inhibition Assay Either two-fold serial dilutions (fractional inhibition assay) or a narrower range of dilutions spanning the IC50 of the inhibitor (tight binding assay) of the inhibitors were incubated with 20 mM Tris-Cl pH 7.4, 2 mM MnCl2, 1 mM dithiothreitol, 1 mM ethylene diamine tetraacetic acid (EDTA), 60 to 125 μM GTP and 20 to 50 nM Δ21 NS5B (HCV Strain 1B (BK, Genbank accession number M58335, or H77, Genbank accession number AF011751)) for 15 min at room temperature. […]
pIC50: −log10 of the molar value.

compound	pIC50
COc1c(C(=O)Nc2ccc(S(C)(=O)=O)cc2)cc(N2CCC(=O)NC2=O)cc1C(C)(C)C [IA-L3-1.78]	< 6.00
COc1c(C#Cc2ccc(NS(C)(=O)=O)cc2C)cc(-n2ccc(=O)[nH]c2=O)cc1C(C)(C)C [IB-L2-1.1]	7.00 to 8.00
COc1c(-c2ccc3c(c2)CCC3=O)cc(-n2ccc(=O)[nH]c2=O)cc1C(C)(C)C [IB-L0-2.50]	7.00 to 8.00
COc1c(C(=O)Nc2ccccc2S(N)(=O)=O)cc(N2CCC(=O)NC2=O)cc1C(C)(C)C [IA-L3-1.80]	< 6.00
COc1c(C(=O)Nc2ccc(OCC#N)cc2)cc(N2CCC(=O)NC2=O)cc1C(C)(C)C [IA-L3-1.38]	6.00 to 7.00
COCCS(=O)(=O)Nc1ccc(NC(=O)c2cc(N3CCC(=O)NC3=O)cc(C(C)(C)C)c2O)cc1 [IA-L3-1.8]	7.00 to 8.00
COc1c(C(=O)Nc2ccc(NS(C)(=O)=O)cc2)cc(N2CCC(=O)N(CC3OCCO3)C2=O)cc1C(C)(C)C [IA-L3-1.117]	< 6.00
CC(C)(C)c1cc(N2CCC(=O)NC2=O)cc(C(=O)Nc2ccc(NS(C)(=O)=O)cc2)c1O [IA-L3-1.6]	> 8.00
COc1c(Cc2cn(C)c3ccccc23)cc(N2CCC(=O)NC2=O)cc1C(C)(C)C [IA-L5-1-2.1]	< 6.00
CCCC(=O)OCN1C(=O)CCN(c2cc(C(=O)Nc3ccc(N(COC(=O)CCC)S(C)(=O)=O)cc3)c(OC)c(C(C)(C)C)c2)C1=O [IA-L3-1.88]	< 6.00
CC(C)(C)c1cc(N2CCC(=O)NC2=O)cc(C(=O)Nc2ccc(OS(C)(=O)=O)cc2)c1O [IA-L3-1.19]	7.00 to 8.00
CC(C)(C)c1cc(-c2ccc3c(c2)CC/C3=N\NS(C)(=O)=O)cc(-n2ccc(=O)[nH]c2=O)c1 [IB-L0-2.7]	7.00 to 8.00
COc1c(C(=O)Nc2ccc(N(COC(=O)C(C)(C)C)S(C)(=O)=O)cc2)cc(N2CCC(=O)N(COC(=O)C(C)(C)C)C2=O)cc1C(C)(C)C [IA-L3-1.116]	< 6.00
COc1c(-c2ccc3c(c2)CC[C@@H]3CNS(C)(=O)=O)cc(-n2ccc(=O)[nH]c2=O)cc1C(C)(C)C (single isomer, unassigned) [IB-L0-2.9]	> 8.00
